Each item that follows carries a reported Tmax.
method.description: Pharmacokinetics (PK) study in SD rat (IV, IP, PO; LC-MS/MS)
Format: in vivo
condition.context: Sprague-Dawley, serum, IP, 2 mg/kg, read-out: time to maximal serum peak level (Tmax)

compound: COc1cc(N2CCC(N3CCN(C(=O)CCOCCOCCNc4cccc5c4C(=O)N(C4CCC(=O)NC4=O)C5=O)CC3)CC2)ccc1Nc1ncc(Cl)c(Nc2ccccc2P(C)(C)=O)n1 (stereo not shown)
Tmax: ~0.42 h
//
compound: COc1cc(N2CCC(N3CCN(C(=O)CNc4cccc5c4C(=O)N(C4CCC(=O)NC4=O)C5=O)CC3)CC2)ccc1Nc1ncc(Cl)c(Nc2ccccc2P(C)(C)=O)n1 (stereo not shown)
Tmax: ~2.67 h
//
compound: COc1cc(N2CCC(NC(=O)CCCNc3cccc4c3C(=O)N(C3CCC(=O)NC3=O)C4=O)CC2)ccc1Nc1ncc(Cl)c(Nc2ccccc2P(C)(C)=O)n1 (stereo not shown)
Tmax: ~1.67 h
//
compound: COc1cc(N2CCC(N3CCN(C(=O)CCCCCCNc4cccc5c4C(=O)N(C4CCC(=O)NC4=O)C5=O)CC3)CC2)ccc1Nc1ncc(Cl)c(Nc2ccccc2P(C)(C)=O)n1 (stereo not shown)
Tmax: ~2 h
